Values were extracted from patent US7794719.

# measured-target: Aβ1-40 fibers (human)
# protocol-notes: SPR
quantity-kind: pKd
For clarity, pKd is expressed as the negative log10 of concentration in mol/L.

binder	pKd
MS-R 3.4H7 x 3.4L7 Fab (antibody, V domains shown) VH: QLVESGGGLVQPGGSLRLSCAASGFTFSSYAMSWVRQAPGKGLEWVSVISETGKNIYYADSVKGRFTISRDNSKNTLYLQMNSLRAEDTAVYYCARLTHYARYYRYFDVWGQGTLVTVSS VL: DIVLTQSPATLSLSPGERATLSCRASQRLGRLYLAWYQQKPGQAPRLLIYGASSRATGVPARFSGSGSGTDFTLTISSLEPEDFATYYCQQTYDYPPTFGQGTKVEIKR	8.92

# next binder below
Incoming: Indicate its recorded pKd; the binder in question is MS-R 8.1H1 x 8.2L1 Fab (antibody, V domains shown) VH: QLVESGGGLVQPGGSLRLSCAASGFTFSSYAMSWVRQAPGKGLEWVSAISRSGSNIYYADSVKGRFTISRDNSKNTLYLQMNSLRAEDTAVYYCARLLSRGYNGYYHKFDVWGQGTLVTVSS VL: DIVLTQSPATLSLSPGERATLSCRASQRVSGRYLAWYQQKPGQAPRLLIYGASSRATGVPARFSGSGSGTDFTLTISSLEPEDFATYYCQQLSSYPPTFGQGTKVEIKR
Outgoing: 8.89
